From: ChEMBL document CHEMBL5584326

# Test system: MOLT-4
# assay-method-text: Cytotoxicity against human MOLT-4 cells assessed as reduction in cell viability at 100 uM measured after 48 hrs by WST-1 assay
# Assay type: toxicity, cell-based
# recorded-conditions: molt-4, 48 h
measured-property: Activity

>>> df
                                   compound  measured_property  reported_value
0  OCCN1CCN(CC(O)COc2cccc(Cl)c2)CC1 (stereo not drawn)           Activity       Non-Toxic
1  OCCN1CCN(CC(O)COc2ccc(Oc3ccc(F)cc3)cc2)CC1 (stereo not drawn)           Activity           Toxic
2  COc1ccc(OCC(O)CN2CCN(CCO)CC2)c([N+](=O)[O-])c1 (stereo not drawn)           Activity       Non-Toxic
3  OCCN1CCN(CC(O)COc2ccc(F)cc2)CC1 (stereo not drawn)           Activity       Non-Toxic
4  O=[N+]([O-])c1ccc(OCC(O)CN2CCN(CCO)CC2)c(F)c1 (stereo not drawn)           Activity       Non-Toxic
5  OCCN1CCN(CC(O)COc2cc(Cl)c(Cl)cc2Cl)CC1 (stereo not drawn)           Activity           Toxic
6  COc1cc([N+](=O)[O-])ccc1OCC(O)CN1CCN(CCO)CC1 (stereo not drawn)           Activity       Non-Toxic
7  O=[N+]([O-])c1cc(OCC(O)CN2CCN(CCO)CC2)ccc1Cl (stereo not drawn)           Activity       Non-Toxic

----------
# Tested on: Jurkat
# assay-method-text: Cytotoxicity against human Jurkat cells assessed as reduction in cell viability at 100 uM measured after 48 hrs by WST-1 assay
# Format: toxicity, cell-based
measured-property: Activity

>>> print(df.to_string())
                                   compound  measured_property  reported_value
0  O=[N+]([O-])c1ccc(OCC(O)CN2CCN(CCO)CC2)c(F)c1 (stereo not drawn)           Activity       Non-Toxic
1  OCCN1CCN(CC(O)COc2cc(Cl)c(Cl)cc2Cl)CC1 (stereo not drawn)           Activity           Toxic
2  COc1ccc(OCC(O)CN2CCN(CCO)CC2)c([N+](=O)[O-])c1 (stereo not drawn)           Activity       Non-Toxic
3  OCCN1CCN(CC(O)COc2cccc(Cl)c2)CC1 (stereo not drawn)           Activity       Non-Toxic
4  OCCN1CCN(CC(O)COc2ccc(Oc3ccc(F)cc3)cc2)CC1 (stereo not drawn)           Activity           Toxic
5  COc1cc([N+](=O)[O-])ccc1OCC(O)CN1CCN(CCO)CC1 (stereo not drawn)           Activity       Non-Toxic
6  O=[N+]([O-])c1cc(OCC(O)CN2CCN(CCO)CC2)ccc1Cl (stereo not drawn)           Activity       Non-Toxic
7  OCCN1CCN(CC(O)COc2ccc(F)cc2)CC1 (stereo not drawn)           Activity       Non-Toxic

----------
# Tested on: SAOS-2
# assay-method-text: Cytotoxicity against human SAOS-2 cells assessed as reduction in cell viability at 100 uM measured after 48 hrs by WST-1 assay
# Type: toxicity, cell-based
# recorded-conditions: saos-2, 48 h
measured-property: Activity

>>> print(df.to_string())
                                   compound  reported_value
0  OCCN1CCN(CC(O)COc2cccc(Cl)c2)CC1 (stereo not drawn)       Non-Toxic
1  COc1ccc(OCC(O)CN2CCN(CCO)CC2)c([N+](=O)[O-])c1 (stereo not drawn)       Non-Toxic
2  O=[N+]([O-])c1cc(OCC(O)CN2CCN(CCO)CC2)ccc1Cl (stereo not drawn)       Non-Toxic
